# tested-on: KRAS G12C (Homo sapiens (Human), UniProt P01116, C118A/G12C)
# Sequence (P01116 other isoform, or with tags, fused parts or gaps G12C/C118A): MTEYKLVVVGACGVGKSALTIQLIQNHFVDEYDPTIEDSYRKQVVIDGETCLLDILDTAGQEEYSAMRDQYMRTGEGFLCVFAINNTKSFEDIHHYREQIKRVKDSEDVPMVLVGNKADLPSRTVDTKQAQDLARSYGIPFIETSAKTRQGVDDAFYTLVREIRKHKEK
# test-name: 2 h coupled exchange assay
# Assay type: biochemical
# measurement-conditions: Avg 2 h Coupled exchange IC50, 2 h compound pre-incubation
observation-type: log10(IC50) (log10 of the value in µM)
Friendly reminder: values = log10 of IC50, unit µM.

{"columns": ["molecule", "tested-on", "log10(IC50)"],
 "data": [
  ["C=CC(=O)N1CC2(CCN(c3nc4c(c(-c5ncccc5F)c3C#N)CC[C@@H](c3scnc3C)C4)C2)C1 [Example 23-59]", "KRAS G12C (Homo sapiens (Human), UniProt P01116, C118A/G12C)", -0.79],
  ["C=CC(=O)N1CC2(CCN(c3nc4c(c(-c5ccc(F)c6sc(N)nc56)c3C)COC(C)(C)C4)C2)C1 (single isomer, unassigned) [Example 14-38]", "KRAS G12C (Homo sapiens (Human), UniProt P01116, C118A/G12C)", -1.20],
  ["C=CC(=O)N1CC2(CCN(c3nc4cc(-c5scnc5C)ccc4c(-c4ccccc4OC)c3C#N)C2)C1", "KRAS G12C (Homo sapiens (Human), UniProt P01116, C118A/G12C)", -0.37],
  ["C=CC(=O)N1CC2(CCN(c3nc4c(c(-c5c(C)ccc6cnn(C)c56)c3F)C[C@H]3C[C@@H]4C3(C)C)C2)C1 (single isomer, unassigned) [Example 14-75]", "KRAS G12C (Homo sapiens (Human), UniProt P01116, C118A/G12C)", -0.14],
  ["C=CC(=O)N1CC2(CCN(c3nc4c(c(-c5ccccc5F)c3C#N)CCN(c3ccncc3C)C4)C2)C1", "KRAS G12C (Homo sapiens (Human), UniProt P01116, C118A/G12C)", -0.35],
  ["C=CC(=O)N1CC2(CCN(c3nc4c(c(-c5ccc(F)cc5F)c3C#N)CCC(c3scnc3C)=C4)C2)C1", "KRAS G12C (Homo sapiens (Human), UniProt P01116, C118A/G12C)", -1.13],
  ["C=CC(=O)N1CC2(CCN(c3nc4c(c(-c5cc(O)cc6ccccc56)c3C)COC(C)(C)C4)C2)C1 (single isomer, unassigned) [Example 14-103]", "KRAS G12C (Homo sapiens (Human), UniProt P01116, C118A/G12C)", -1.35],
  ["C=CC(=O)N1CC2(CCN(c3nc4c(c(-c5c(C)ccc6[nH]ncc56)c3F)C[C@H]3C[C@@H]4C3(C)C)C2)C1 [Example 14-72]", "KRAS G12C (Homo sapiens (Human), UniProt P01116, C118A/G12C)", -1.52]
]}

Would you mind listing log10(IC50) for each of the following molecules?
1. C=CC(=O)N1CC2(CCN(c3nc4c(c(-c5cccc(O)c5F)c3C#N)CCN(c3scnc3C)C4)C2)C1
2. C=CC(=O)N1CC2(CCN(c3nc4c(c(-c5c(O)cccc5Cl)c3C#N)CCC(c3scnc3C)=C4)C2)C1

[-1.17, -1.01]

State recorded log10(IC50) for all listed molecules.
1. C=CC(=O)N1CC2(CCN(c3nc4c(c(-c5ccccc5Cl)c3C#N)CCC(c3scnc3C)=C4)C2)C1 (single isomer, unassigned) [Example 23-42]
2. C=CC(=O)N1CC2(CCN(c3nc4cc(-c5scnc5C)cnc4c(-c4ccccc4Cl)c3C#N)C2)C1 [Example 20-7]
3. C=CC(=O)N1CC2(CCN(c3nc4c(c(-c5ccc(F)cc5F)c3C#N)CCN(C(C)C)C4)C2)C1

1. -1.18
2. -0.88
3. -0.04

###

# tested-on: KRAS G12C (Homo sapiens (Human), UniProt P01116, C118A/G12C)
# test-name: 2 h coupled exchange assay
# Assay type: biochemical
# measurement-conditions: Avg 2 h Coupled exchange IC50, 2 h compound pre-incubation, SOS-mediated nucleotide exchange
observation-type: pIC50
Answers are plain numbers, as −log10 of the molar value.

Reference set (2 entries):
{"columns": ["compound", "tested-on", "pIC50"],
 "data": [
  ["C=CC(=O)N1CC2(CCN(c3nc4c(c(-c5cc(O)ccc5C)c3C#N)[C@H]3CC[C@@H]4C3)C2)C1 (single isomer, unassigned) [Example 14-14]", "KRAS G12C (Homo sapiens (Human), UniProt P01116, C118A/G12C)", 6.97],
  ["C=CC(=O)N1CC2(CCN(c3nc4c(c(-c5c(O)ccc6ccccc56)c3C#N)C[C@H]3C[C@@H]4C3)C2)C1 (single isomer, unassigned) [Example 13-37]", "KRAS G12C (Homo sapiens (Human), UniProt P01116, C118A/G12C)", 4.50]
]}

We now examine a further compound.
Specify pIC50 for C=CC(=O)N1CC2(CCN(c3nc4c(c(-c5cc(O)ccc5C)c3C#N)C[C@H]3C[C@@H]4C3)C2)C1 (single isomer, unassigned) [Example 13-126] and stop.
7.54

###

What IC50 was measured for each of the following?
# tested-on: KRAS G12C (Homo sapiens (Human), UniProt P01116, C118A/G12C)
# test-name: 2 h coupled exchange assay
# Type: biochemical
# measurement-conditions: Avg 2 h Coupled exchange IC50, 2 h compound pre-incubation, SOS-mediated nucleotide exchange
Give bare numbers, in nM.

Some compounds with recorded IC50:
{"columns": ["compound", "observation-type", "unit-info", "test-value"],
 "data": [
  ["C=CC(=O)N1CC2(CCN(c3nc4c(c(-c5c(N)c(Cl)cc(Cl)c5F)c3C#N)COC(C)(C)C4)C2)C1 [Example 13-154]", "IC50", "nM", 81],
  ["C=CC(=O)N1CC2(CCN(c3nc4c(c(-c5c(C)ccc6cnn(C)c56)c3C#N)C[C@H]3C[C@@H]4C3)C2)C1 [Example 13-110]", "IC50", "nM", 73],
  ["C=CC(=O)N1CC2(CCN(c3nc(-c4ccccc4F)c4ccn(C)c4n3)C2)C1", "IC50", "nM", 250000]
]}

Supply recorded IC50 for C=CC(=O)N1CC2(CCN(c3nc4c(c(-c5cc(O)cc6ccccc56)c3C#N)C[C@H]3C[C@@H]4C3(C)C)C2)C1 [Example 13-108] here.
24

###

# tested-on: KRAS G12C (Homo sapiens (Human), UniProt P01116, C118A/G12C)
# test-name: 2 h coupled exchange assay
# Type: biochemical
# measurement-conditions: Avg 2 h Coupled exchange IC50, 2 h compound pre-incubation, SOS-mediated nucleotide exchange
observation-type: pIC50
Numbers only, as −log10 of the molar value.

{"columns": ["compound", "pIC50"],
 "data": [
  ["C=CC(=O)N1CC2(CCN(c3nc4c(c(-c5cc(O)cc6ccccc56)n3)CCCC4)C2)C1", 6.37],
  ["C=CC(=O)N1CC2(CCN(c3nc4c(c(-c5c(Cl)c(C)cc6[nH]ncc56)c3C#N)C[C@H]3C[C@@H]4C3(C)C)C2)C1", 6.01],
  ["C=CC(=O)N1CC2(CCN(c3nc4c(c(-c5cccc6cc(O)ccc56)c3C#N)COC(C)(C)C4)C2)C1", 6.96],
  ["C=CC(=O)N1CC2(CCN(c3nc4c(c(-c5c(C)ccc6cnn(C)c56)c3C#N)CCC4(C)C)C2)C1 (single isomer, unassigned) [Example 13-102]", 3.85],
  ["C=CC(=O)N1CC2(CCN(c3nc4c(c(-c5c(C)ccc6cnn(C)c56)c3C#N)CO[C@@H](C)C4)C2)C1", 6.21]
]}

List pIC50 for every entry below, keeping the order given.
1. C=CC(=O)N1CC2(CCN(c3nc4c(c(-c5c(C)ccc6[nH]ncc56)c3C#N)CCC(C)C4)C2)C1 (stereo not shown)
2. C=CC(=O)N1CC2(CCN(c3nc4c(c(-c5c(C)ccc6cnn(C)c56)c3C#N)CCC3CC43)C2CO)C1 (stereo not shown)

[7.38, 6.84]

###

Answer each item with its documented IC50.
# tested-on: KRAS G12C (Homo sapiens (Human), UniProt P01116, C118A/G12C)
# test-name: 2 h coupled exchange assay
# Assay type: biochemical
# measurement-conditions: Avg 2 h Coupled exchange IC50, 2 h compound pre-incubation, SOS-mediated nucleotide exchange
One number for each entry, in nM.

Some solved cases for reference:
{"columns": ["compound", "tested-on", "IC50 [nM]"],
 "data": [
  ["C=CC(=O)N1CC2(CCN(c3nc4c(c(-c5c(C)ccc6[nH]ncc56)c3C#N)CCC43CC3)C2)C1 [Example 13-101]", "KRAS G12C (Homo sapiens (Human), UniProt P01116, C118A/G12C)", 102],
  ["C=CC(=O)N1CC2(CCN(c3nc4c(c(-c5c(C)cnc6[nH]ncc56)c3C#N)CCC(C)(C)C4)C2)C1 [Example 13-151]", "KRAS G12C (Homo sapiens (Human), UniProt P01116, C118A/G12C)", 149],
  ["C=CC(=O)N1CC2(CCN(c3nc4c(c(-c5cc(O)cc6ncccc56)c3C#N)C[C@H]3C[C@@H]4C3(C)C)C2)C1 (single isomer, unassigned) [Example 2-46]", "KRAS G12C (Homo sapiens (Human), UniProt P01116, C118A/G12C)", 6]
]}

For each of the compounds below, note its IC50.
1. C=CC(=O)N1CC2(CCN(c3nc4ccccc4c(-c4c(Cl)ccc5[nH]ncc45)c3C)C2)C1 [Example 2-29]
2. C=CC(=O)N1CC2(CCN(c3nc4c(c(-c5c(C)ccc6[nH]ncc56)c3C#N)CC3(CC4)CC3)C2)C1 [Example 13-11]
3. C=CC(=O)N1CC2(CCN(c3nc4c(c(-c5cccc6[nH]ccc56)c3C#N)C[C@H]3C[C@@H]4C3(C)C)C2)C1 [Example 12-42]

1: 903; 2: 67; 3: 878

These measurements were taken from patent US20240059703A1.
